Every entry's value here was drawn from ChEMBL document CHEMBL4052630.

# ASSAY NAME: Antioxidant activity assessed as trolox equivalents of AAPH radical scavenging activity at 1 to 10 uM preincubated for 15 mins followed by AAPH addition measured every 60 sec for 90 mins by ORAC-FL assay
# Format: functional
Each entry below carries its reported Activity.
EXPERIMENTAL READOUT: Activity (equiv)

- MOLECULE SMILES: "COc1cc2oc(-c3ccc(O)cc3)cc(=O)c2c(O)c1OC"
  EXPERIMENTAL READOUT: "Activity"
  REPORTED: 3.07
- MOLECULE SMILES: "CCN(CCNC(=O)COc1ccc(-c2cc(=O)c3c(OC)c(OC)c(OC)cc3o2)cc1)Cc1ccccc1OC"
  EXPERIMENTAL READOUT: "Activity"
  REPORTED: 0.42
- MOLECULE SMILES: "CCN(CCCCNC(=O)COc1ccc(-c2cc(=O)c3c(O)c(OC)c(OC)cc3o2)cc1)Cc1ccccc1OC"
  EXPERIMENTAL READOUT: "Activity"
  REPORTED: 1.13
- MOLECULE SMILES: "COc1cc2oc(-c3ccc(OCC(=O)NCCN(C)Cc4ccccc4)cc3)cc(=O)c2c(OC)c1OC"
  EXPERIMENTAL READOUT: "Activity"
  REPORTED: 0.42

* * *

# ASSAY TARGET: Amyloid-beta precursor protein (Homo sapiens) (UniProt P05067)
# Sequence (P05067 whole entry): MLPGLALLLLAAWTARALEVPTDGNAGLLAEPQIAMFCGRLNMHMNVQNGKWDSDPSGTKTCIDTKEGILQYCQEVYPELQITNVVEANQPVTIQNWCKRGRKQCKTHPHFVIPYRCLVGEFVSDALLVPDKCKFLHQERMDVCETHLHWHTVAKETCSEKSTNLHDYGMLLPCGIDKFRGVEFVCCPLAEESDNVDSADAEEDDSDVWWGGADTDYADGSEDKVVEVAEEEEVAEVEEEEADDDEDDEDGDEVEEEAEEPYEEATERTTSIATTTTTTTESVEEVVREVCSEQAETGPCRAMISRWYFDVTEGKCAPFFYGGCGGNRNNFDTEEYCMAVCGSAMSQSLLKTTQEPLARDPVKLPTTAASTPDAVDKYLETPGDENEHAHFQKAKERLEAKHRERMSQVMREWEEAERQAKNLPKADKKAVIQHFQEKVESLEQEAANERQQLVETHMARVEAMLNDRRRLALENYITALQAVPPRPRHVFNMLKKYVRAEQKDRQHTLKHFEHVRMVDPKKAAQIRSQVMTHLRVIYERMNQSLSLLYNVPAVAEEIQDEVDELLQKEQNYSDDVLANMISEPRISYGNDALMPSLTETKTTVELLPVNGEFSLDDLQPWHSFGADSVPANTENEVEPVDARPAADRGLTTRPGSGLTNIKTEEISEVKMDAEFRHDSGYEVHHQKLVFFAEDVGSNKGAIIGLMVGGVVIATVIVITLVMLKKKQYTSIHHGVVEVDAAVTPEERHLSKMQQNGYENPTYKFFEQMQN
# ASSAY NAME: Inhibition of amyloid beta (1 to 42) (unknown origin) self aggregation at 25 uM after 24 hrs by ThT-based fluorometric method relative to control

- MOLECULE SMILES: "CCN(CCCCCCNC(=O)COc1ccc(-c2cc(=O)c3c(OC)c(OC)c(OC)cc3o2)cc1)Cc1ccccc1"
  SCALE UNIT: "%"
  inhibition: 34.4
- MOLECULE SMILES: "COc1ccccc1CN(C)CCCCCCNC(=O)COc1ccc(-c2cc(=O)c3c(O)c(OC)c(OC)cc3o2)cc1"
  SCALE UNIT: "%"
  inhibition: 53.3
- MOLECULE SMILES: "COc1ccccc1CN(C)CCCNC(=O)COc1ccc(-c2cc(=O)c3c(OC)c(OC)c(OC)cc3o2)cc1"
  SCALE UNIT: "%"
  inhibition: 27.5
- MOLECULE SMILES: "COc1ccccc1CN(C)CCCCCCNC(=O)COc1ccc(-c2cc(=O)c3c(OC)c(OC)c(OC)cc3o2)cc1"
  SCALE UNIT: "%"
  inhibition: 36.1
- MOLECULE SMILES: "CCN(CCCCNC(=O)COc1ccc(-c2cc(=O)c3c(OC)c(OC)c(OC)cc3o2)cc1)Cc1ccccc1OC"
  SCALE UNIT: "%"
  inhibition: 44.7
- MOLECULE SMILES: "CCN(CCCCNC(=O)COc1ccc(-c2cc(=O)c3c(O)c(OC)c(OC)cc3o2)cc1)Cc1ccccc1OC"
  SCALE UNIT: "%"
  inhibition: 57.1
- MOLECULE SMILES: "COc1cc2oc(-c3ccc(O)cc3)cc(=O)c2c(OC)c1OC"
  SCALE UNIT: "%"
  inhibition: 6.7
- MOLECULE SMILES: "COc1ccccc1CN(C)CCCCNC(=O)COc1ccc(-c2cc(=O)c3c(O)c(OC)c(OC)cc3o2)cc1"
  SCALE UNIT: "%"
  inhibition: 56.9
- MOLECULE SMILES: "COc1ccccc1CN(C)CCCNC(=O)COc1ccc(-c2cc(=O)c3c(O)c(OC)c(OC)cc3o2)cc1"
  SCALE UNIT: "%"
  inhibition: 53.9
- MOLECULE SMILES: "COc1cc2oc(-c3ccc(O)cc3)cc(=O)c2c(O)c1OC"
  SCALE UNIT: "%"
  inhibition: 9.8
- MOLECULE SMILES: "CCN(CCCCCCNC(=O)COc1ccc(-c2cc(=O)c3c(O)c(OC)c(OC)cc3o2)cc1)Cc1ccccc1OC"
  SCALE UNIT: "%"
  inhibition: 56.7
- MOLECULE SMILES: "COc1cc2oc(-c3ccc(OCC(=O)NCCCN(C)Cc4ccccc4)cc3)cc(=O)c2c(OC)c1OC"
  SCALE UNIT: "%"
  inhibition: 34.2
- MOLECULE SMILES: "COc1cc2oc(-c3ccc(OCC(=O)NCCCCCCN(C)Cc4ccccc4)cc3)cc(=O)c2c(OC)c1OC"
  SCALE UNIT: "%"
  inhibition: 44.3
- MOLECULE SMILES: "COc1ccccc1CN(C)CCNC(=O)COc1ccc(-c2cc(=O)c3c(OC)c(OC)c(OC)cc3o2)cc1"
  SCALE UNIT: "%"
  inhibition: 29.4
- MOLECULE SMILES: "CCN(CCCNC(=O)COc1ccc(-c2cc(=O)c3c(OC)c(OC)c(OC)cc3o2)cc1)Cc1ccccc1OC"
  SCALE UNIT: "%"
  inhibition: 42.4
- MOLECULE SMILES: "CCN(CCNC(=O)COc1ccc(-c2cc(=O)c3c(OC)c(OC)c(OC)cc3o2)cc1)Cc1ccccc1OC"
  SCALE UNIT: "%"
  inhibition: 26.9
- MOLECULE SMILES: "COc1cc2oc(-c3ccc(OCC(=O)NCCN(C)Cc4ccccc4)cc3)cc(=O)c2c(OC)c1OC"
  SCALE UNIT: "%"
  inhibition: 44.8
